Target: T1, succinyl-L-Ala-L-Ala-L-Pro-L-Phe-p-nitroanilide (SEQ ID NO: 1)
T1 chain: AAPF
Quick reference: kcat pH 8.6 (% of wild-type) (% of wild-type) of the listed items.
recordedMetric: kcat pH 8.6 (% of wild-type) (% of wild-type)

1. N74D/S101A/V102W (control variant of WO1995010591; sequence SEQ ID NO: 3) (protein) AQSVPWGISRVQAPAAHNRGLTGSGVKVAVLDTGISTHPDLNIRGGASFVPGEPSTQDGNGHGTHVAGTIAALDNSIGVLGVAPSAELYAVKVLGASGSGAWSSIAQGLEWAGNNGMHVANLSLGSPSPSATLEQAVNSATSRGVLVVAASGNSGAGSISYPARYANAMAVGATDQNNNRASFSQYGAGLDIVAPGVNVQSTYPGSTYASLNGTSMATPHVAGAAALVKQKNPSWSNVQIRNHLKNTATSLGSTNLYGSGLVNAEAATR | 638
2. wild-type subtilisin of Bacillus lentus (SEQ ID NO: 2) (protein) AQSVPWGISRVQAPAAHNRGLTGSGVKVAVLDTGISTHPDLNIRGGASFVPGEPSTQDGNGHGTHVAGTIAALNNSIGVLGVAPSAELYAVKVLGASGSGSVSSIAQGLEWAGNNGMHVANLSLGSPSPSATLEQAVNSATSRGVLVVAASGNSGAGSISYPARYANAMAVGATDQNNNRASFSQYGAGLDIVAPGVNVQSTYPGSTYASLNGTSMATPHVAGAAALVKQKNPSWSNVQIRNHLKNTATSLGSTNLYGSGLVNAEAATR | 100
3. N74D/S99G/V102W/S126G/D191E/N198G/N212S/T254P (variant of sequence SEQ ID NO: 4) (protein) AQSVPWGISRVQAPAAHNRGLTGSGVKVAVLDTGISTHPDLNIRGGASFVPGEPSTQDGNGHGTHVAGTIAALDNSIGVLGVAPSAELYAVKVLGASGGGSWSSIAQGLEWAGNNGMHVANLSLGGPSPSATLEQAVNSATSRGVLVVAASGNSGAGSISYPARYANAMAVGATDQNNNRASFSQYGAGLEIVAPGVGVQSTYPGSTYASLSGTSMATPHVAGAAALVKQKNPSWSNVQIRNHLKNTATSLGSPNLYGSGLVNAEAATR | 579
4. N74D/S97D/S126G/P204I/T254P/S259N (variant of sequence SEQ ID NO: 6) (protein) AQSVPWGISRVQAPAAHNRGLTGSGVKVAVLDTGISTHPDLNIRGGASFVPGEPSTQDGNGHGTHVAGTIAALDNSIGVLGVAPSAELYAVKVLGADGSGSVSSIAQGLEWAGNNGMHVANLSLGGPSPSATLEQAVNSATSRGVLVVAASGNSGAGSISYPARYANAMAVGATDQNNNRASFSQYGAGLDIVAPGVNVQSTYIGSTYASLNGTSMATPHVAGAAALVKQKNPSWSNVQIRNHLKNTATSLGSPNLYGNGLVNAEAATR | 55
5. N74D/S99G/V102W/S126G/N198A/N212S/T254P (variant of sequence SEQ ID NO: 5) (protein) AQSVPWGISRVQAPAAHNRGLTGSGVKVAVLDTGISTHPDLNIRGGASFVPGEPSTQDGNGHGTHVAGTIAALDNSIGVLGVAPSAELYAVKVLGASGGGSWSSIAQGLEWAGNNGMHVANLSLGGPSPSATLEQAVNSATSRGVLVVAASGNSGAGSISYPARYANAMAVGATDQNNNRASFSQYGAGLDIVAPGVAVQSTYPGSTYASLSGTSMATPHVAGAAALVKQKNPSWSNVQIRNHLKNTATSLGSPNLYGSGLVNAEAATR | 503

The origin of these recorded values is patent US20260258390.
